System: rodent lifetime carcinogenesis bioassay, tumor incidence TD50
Assay: carcinogenic potency in animals, long-term in vivo studies, CPDB compilation (AID 1745844)
Conditions: mouse; strain B6C3F1; males; in feed; site: kidney; lesion: tubule adenoma; dosed 104 weeks; study length 105 weeks
readout: TD50

* OCC(CO)(CBr)CBr | 1190 mg/kg/day

====

Test system: rodent lifetime carcinogenesis bioassay, tumor incidence TD50
Assay: carcinogenic potency in animals, long-term in vivo studies, CPDB compilation (AID 1745844)
Conditions: rat; strain Fischer 344; males; by gavage; site: pituitary gland; lesion: chromophobe adenoma; dosed 106 weeks; study length 108 weeks
readout: TD50 (mg/kg/day)

* Cc1ccc(N=C=O)cc1N=C=O | 76.4

====

Tested on: rodent lifetime carcinogenesis bioassay, tumor incidence TD50
Assay: carcinogenic potency in animals, long-term in vivo studies, CPDB compilation (AID 1745844)
Conditions: rat; strain Fischer 344; females; in feed; site: uterus; lesion: endometrial stromal sarcoma; dosed 103 weeks; study length 104 weeks
readout: TD50

• N=C1C=CC(=C(c2ccc(N)cc2)c2ccc(N)cc2)C=C1 = 133 mg/kg/day

====

Test system: rodent lifetime carcinogenesis bioassay, tumor incidence TD50
Experiment: carcinogenic potency in animals, long-term in vivo studies, CPDB compilation (AID 1745844)
Details: hamster; strain Syrian Golden; females; by gavage; site: forestomach; lesion: several types; types named in the paper; dosed 30 weeks; study length 104 weeks
readout: TD50

• O=NN1CCOC1 = 2.61 mg/kg/day

====

System: rodent lifetime carcinogenesis bioassay, tumor incidence TD50
Experiment: carcinogenic potency in animals, long-term in vivo studies, CPDB compilation (AID 1745844)
Conditions: mouse; strain Swiss; females; inhaled; site: lung; lesion: several types; types named in the paper; dosed 52 weeks; study length 126 weeks
readout: TD50

- C=C(Cl)Cl: 124 mg/kg/day

====

Test system: rodent lifetime carcinogenesis bioassay, tumor incidence TD50
Assay: carcinogenic potency in animals, long-term in vivo studies, CPDB compilation (AID 1745844)
Settings: rat; strain Wistar; males; in feed; site: any site (literature study); lesion: benign tumor; dosed 104 weeks; study length 104 weeks
Activity calls are given as the source filed them. How the calls were made is not given here.
readout: TD50

- CCOC(=O)C1OC1(C)c1ccccc1 (stereo unspecified): 1150 mg/kg/day (inactive)

====

System: rodent lifetime carcinogenesis bioassay, tumor incidence TD50
Test: carcinogenic potency in animals, long-term in vivo studies, CPDB compilation (AID 1745844)
Details: rat; strain Fischer 344; females; in drinking water; site: liver; lesion: hepatocellular carcinoma; dosed 75 weeks; study length 120 weeks
readout: TD50

- O=NN(CCO)CC(O)CO (stereo unspecified): 11.5 mg/kg/day

====

Tested on: rodent lifetime carcinogenesis bioassay, tumor incidence TD50
Assay: carcinogenic potency in animals, long-term in vivo studies, CPDB compilation (AID 1745844)
Details: rat; strain Fischer 344; females; inhaled; site: all sites; lesion: mononuclear-cell leukemia; dosed 102 weeks; study length 104 weeks
readout: TD50 (mg/kg/day)

* ClCCl | 1280

====

Test system: rodent lifetime carcinogenesis bioassay, tumor incidence TD50
Assay: carcinogenic potency in animals, long-term in vivo studies, CPDB compilation (AID 1745844)
Conditions: mouse; strain B6C3F1; males; by gavage; site: all sites; lesion: histiocytic sarcoma + malignant lymphoma, histiocytic type + malignant lymphoma, lymphocytic type + malignant lymphoma; dosed 103 weeks; study length 104 weeks
readout: TD50

• O=C1CCc2ccccc2O1 = 3320 mg/kg/day

====

System: rodent lifetime carcinogenesis bioassay, tumor incidence TD50
Assay: carcinogenic potency in animals, long-term in vivo studies, CPDB compilation (AID 1745844)
Details: mouse; strain CD-1 HaM/ICR; females; in feed; site: lung; lesion: several types; types named in the paper; dosed 77 weeks; study length 98 weeks
Activity calls are given as the source filed them. No rule for the calls is given here.
readout: TD50

• Nc1ccc(-c2ccc(N)c(N)c2)cc1N = 1030 mg/kg/day (inactive)

====

System: rodent lifetime carcinogenesis bioassay, tumor incidence TD50
Assay: carcinogenic potency in animals, long-term in vivo studies, CPDB compilation (AID 1745844)
Conditions: mouse; strain BALB/c; females; i.p.; site: skin; lesion: several types; types named in the paper; dosed 50 weeks; study length 72 weeks
readout: TD50

- Nc1ncn([C@@H]2O[C@H](CO)[C@@H](O)[C@H]2O)c(=O)n1: 0.499 mg/kg/day

====

System: rodent lifetime carcinogenesis bioassay, tumor incidence TD50
Assay: carcinogenic potency in animals, long-term in vivo studies, CPDB compilation (AID 1745844)
Conditions: mouse; strain ASH-CS1; females; in feed; site: lung; lesion: adenoma; dosed 80 weeks; study length 80 weeks
The source made the active and inactive calls. How the calls were made is not given here.
readout: TD50

- CCN(Cc1cccc(S(=O)(=O)[O-])c1)c1ccc(C(=C2C=CC(=[N+](C)C)C=C2)c2ccc(N(CC)Cc3cccc(S(=O)(=O)O)c3)cc2)cc1: 1910 mg/kg/day (inactive)

====

Test system: rodent lifetime carcinogenesis bioassay, tumor incidence TD50
Test: carcinogenic potency in animals, long-term in vivo studies, CPDB compilation (AID 1745844)
Conditions: rat; strain Sprague-Dawley; females; in feed; site: lung; lesion: hemangioendothelial sarcoma; dosed 40 weeks; study length 59 weeks
readout: TD50

* CC(=O)Nc1nnc(-c2ccc([N+](=O)[O-])o2)s1 | 52.3 mg/kg/day

====

Tested on: rodent lifetime carcinogenesis bioassay, tumor incidence TD50
Assay: carcinogenic potency in animals, long-term in vivo studies, CPDB compilation (AID 1745844)
Details: rat; strain Fischer 344; females; inhaled; site: nasal cavity; lesion: squamous-cell carcinoma; dosed 52 weeks; study length 130 weeks
readout: TD50

* NN | 13.1 mg/kg/day

====

Test system: rodent lifetime carcinogenesis bioassay, tumor incidence TD50
Assay: carcinogenic potency in animals, long-term in vivo studies, CPDB compilation (AID 1745844)
Conditions: rat; strain Fischer 344; males; inhaled; site: adrenal medulla + brain + lung; lesion: pheochromocytoma + pheochromocytoma, malignant + astrocytoma + granulosa-cell tumor, NOS + glioma, NOS + oligodendroglioma + alveola; dosed 104 weeks; study length 106 weeks
readout: TD50

• CCBr = 151 mg/kg/day

====

Test system: rodent lifetime carcinogenesis bioassay, tumor incidence TD50
Assay: carcinogenic potency in animals, long-term in vivo studies, CPDB compilation (AID 1745844)
Conditions: rat; strain Holtzman albino (Sprague-Dawley derived); females; in feed; site: cecum; lesion: adenocarcinoma; dosed 44 weeks; study length 60 weeks
readout: TD50

• O=CNNc1nc(-c2ccc([N+](=O)[O-])o2)cs1 = 210 mg/kg/day

====

Test system: rodent lifetime carcinogenesis bioassay, tumor incidence TD50
Assay: carcinogenic potency in animals, long-term in vivo studies, CPDB compilation (AID 1745844)
Conditions: rat; strain F344/DuCrj; females; in drinking water; site: liver; lesion: neoplastic nodule; dosed 104 weeks; study length 108 weeks
readout: TD50 (mg/kg/day)

* CC(=O)OC/C=C(C)/C=C/C=C(C)/C=C/C1=C(C)CCCC1(C)C | 7340

====

Tested on: rodent lifetime carcinogenesis bioassay, tumor incidence TD50
Test: carcinogenic potency in animals, long-term in vivo studies, CPDB compilation (AID 1745844)
Conditions: rat; strain F344/DuCrj; males; in feed; site: small intestine; lesion: mucinous carcinoma; dosed 67 weeks; study length 67 weeks
readout: TD50

• Cc1cccn2c1nc1ccc(N)nc12 = 236 mg/kg/day

====

System: rodent lifetime carcinogenesis bioassay, tumor incidence TD50
Assay: carcinogenic potency in animals, long-term in vivo studies, CPDB compilation (AID 1745844)
Conditions: mouse; strain Swiss; males; inhaled; site: liver; lesion: hepatoma; dosed 30 weeks; study length 77 weeks
readout: TD50 (mg/kg/day)

- C=CCl: 25200

====

Test system: rodent lifetime carcinogenesis bioassay, tumor incidence TD50
Experiment: carcinogenic potency in animals, long-term in vivo studies, CPDB compilation (AID 1745844)
Conditions: rat; strain Wistar; males; in feed; site: mammary gland; lesion: several types; types named in the paper; dosed 78 weeks; study length 104 weeks
readout: TD50

- NC(=O)C(=Cc1ccc([N+](=O)[O-])o1)c1ccco1: 1200 mg/kg/day

====

System: rodent lifetime carcinogenesis bioassay, tumor incidence TD50
Experiment: carcinogenic potency in animals, long-term in vivo studies, CPDB compilation (AID 1745844)
Details: mouse; strain C3H/HeN-MTV-/Nctr (MTV-); females; in feed; site: cervix uteri; lesion: adenocarcinoma; dosed 112 weeks; study length 112 weeks
readout: TD50

- CC/C(=C(/CC)c1ccc(O)cc1)c1ccc(O)cc1: 2.47 mg/kg/day

====

Test system: rodent lifetime carcinogenesis bioassay, tumor incidence TD50
Assay: carcinogenic potency in animals, long-term in vivo studies, CPDB compilation (AID 1745844)
Details: rat; strain Wistar; females; in drinking water; site: thyroid gland; lesion: follicular-cell adenoma; dosed 104 weeks; study length 104 weeks
readout: TD50

* O=C1OC(O)C(C(Cl)Cl)=C1Cl (stereo unspecified) | 0.645 mg/kg/day

====

Tested on: rodent lifetime carcinogenesis bioassay, tumor incidence TD50
Assay: carcinogenic potency in animals, long-term in vivo studies, CPDB compilation (AID 1745844)
Details: mouse; strain B6AKF1; males; oral dosing; site: liver; lesion: hepatoma; dosed 84 weeks; study length 84 weeks
readout: TD50

* CC(C)N(C(=O)SCC(Cl)=CCl)C(C)C | 43 mg/kg/day
